Origin of values: ChEMBL document CHEMBL5154742

Tested on: HT-29
Assay name: Cytotoxicity against human HT-29 cells assessed as reduction in cell viability incubated for 48 hrs by MTT assay
Type: functional, cell-based
Cond: HT-29, 48 h
Listed compounds paired with reported pIC50
A value of pIC50 is the negative decimal logarithm of a concentration given in moles per litre.

{"columns": ["Smiles code", "pIC50"],
 "data": [
  ["O=C1c2ccc3c4c(c(NCc5cn(CCS[C@@H]6O[C@H](CO)[C@@H](O)[C@H](O)[C@H]6O)nn5)cc(c24)C(=O)N1CCN1CCOCC1)C(=O)N(CCN1CCOCC1)C3=O", 4.54]
]}

[Q] Using known records, supply pIC50 for CN(C)CCCN1C(=O)c2ccc3c4c(c(NCc5cn(CCS[C@@H]6O[C@H](CO)[C@@H](O)[C@H](O)[C@H]6O)nn5)cc(c24)C1=O)C(=O)N(CCCN(C)C)C3=O
[A] 6.12

[Q] Using known records, supply pIC50 for O=C1c2ccc3c4c(c(NCc5cn(CCO[C@@H]6O[C@H](CO)[C@H](O)[C@H](O)[C@H]6O)nn5)cc(c24)C(=O)N1CCN1CCOCC1)C(=O)N(CCN1CCOCC1)C3=O
[A] 5.44

###

Listed molecules paired with reported selectivity ratio
Assay name: Selectivity index, ratio of IC50 for cytotoxicity against human MRC5 cells to IC50 for antileishmanial activity against Leishmania major (MHOM/IL/80/Friedlin) promastigotes
Type: toxicity, cell-based
Cond: read-out: Selectivity Index
No unit in the answer, only the number.

{"columns": ["Smiles code", "selectivity ratio"],
 "data": [
  ["O=C1c2ccc3c4c(c(NCc5cn(CCO[C@@H]6O[C@H](CO)[C@@H](O)[C@H](O)[C@H]6O)nn5)cc(c24)C(=O)N1CCN1CCOCC1)C(=O)N(CCN1CCOCC1)C3=O", 0.7]
]}

[Q] Using known records, supply selectivity ratio for O=C1c2ccc3c4c(c(NCc5cn(CCS[C@@H]6O[C@H](CO)[C@H](O)[C@H](O)[C@H]6O)nn5)cc(c24)C(=O)N1CCN1CCOCC1)C(=O)N(CCN1CCOCC1)C3=O
[A] 0.8

###

Listed compounds paired with reported selectivity ratio
Assay name: Selectivity index, ratio of IC50 for cytotoxicity against human MRC5 cells to IC50 for antitrypanosomal activity against Trypanosoma brucei
Format: toxicity, cell-based
Cond: MRC5 cells versus Trypanosoma brucei, read-out: Selectivity Index
No unit in the answer, only the number.

Some compounds with recorded selectivity ratio:
{"columns": ["Smiles code", "Observed measurement"],
 "data": [
  ["CN(C)CCCN1C(=O)c2ccc3c4c(c(NCc5cn(CCO[C@@H]6O[C@H](CO)[C@H](O)[C@H](O)[C@H]6O)nn5)cc(c24)C1=O)C(=O)N(CCCN(C)C)C3=O", 38.8],
  ["CN(C)CCCN1C(=O)c2ccc3c4c(c(NCc5cn(CCS[C@@H]6O[C@H](CO)[C@@H](O)[C@H](O)[C@H]6O)nn5)cc(c24)C1=O)C(=O)N(CCCN(C)C)C3=O", 55]
]}

The record that follows has no selectivity ratio shown yet.
[Q] Using known records, supply selectivity ratio for O=C1c2ccc3c4c(c(NCc5cn(CCS[C@@H]6O[C@H](CO)[C@@H](O)[C@H](O)[C@H]6O)nn5)cc(c24)C(=O)N1CCN1CCOCC1)C(=O)N(CCN1CCOCC1)C3=O
[A] 30.3

###

Assay name: Cytotoxicity against human MRC5 cells assessed as reduction in cell viability incubated for 48 hrs by MTT assay
Assay type: toxicity, cell-based
Listed compounds paired with reported log10 of IC50 at 48 h
Field: value | Transform: log10 | Quantity: IC50 at 48 h | Unit: nM

Some compounds with recorded log10 of IC50 at 48 h:
{"columns": ["Smiles code", "Observed measurement"],
 "data": [
  ["CN(C)CCCN1C(=O)c2ccc3c4c(c(NCc5cn(CCO[C@@H]6O[C@H](CO)[C@H](O)[C@H](O)[C@H]6O)nn5)cc(c24)C1=O)C(=O)N(CCCN(C)C)C3=O", 3.29],
  ["CN(C)CCCN1C(=O)c2ccc3c4c(c(NCc5cn(CCO[C@H]6O[C@H](CO)[C@@H](O)[C@H](O)[C@@H]6O)nn5)cc(c24)C1=O)C(=O)N(CCCN(C)C)C3=O", 2.98],
  ["O=C1c2ccc3c4c(c(NCc5cn(CCS[C@@H]6O[C@H](CO)[C@H](O)[C@H](O)[C@H]6O)nn5)cc(c24)C(=O)N1CCN1CCOCC1)C(=O)N(CCN1CCOCC1)C3=O", 4.37],
  ["O=C1c2ccc3c4c(c(NCc5cn(CCO[C@@H]6O[C@H](CO)[C@H](O)[C@H](O)[C@H]6O)nn5)cc(c24)C(=O)N1CCN1CCOCC1)C(=O)N(CCN1CCOCC1)C3=O", 4.02],
  ["CN(C)CCCN1C(=O)c2ccc3c4c(c(NCc5cn(CCS[C@H]6O[C@H](CO)[C@@H](O)[C@H](O)[C@@H]6O)nn5)cc(c24)C1=O)C(=O)N(CCCN(C)C)C3=O", 3.44]
]}

The record that follows has no log10 of IC50 at 48 h shown yet.
[Q] Using known records, supply log10 of IC50 at 48 h for CN(C)CCCN1C(=O)c2ccc3c4c(c(NCc5cn(CCS[C@@H]6O[C@H](CO)[C@@H](O[C@H]7O[C@H](CO)[C@@H](O)[C@H](O)[C@H]7O)[C@H](O)[C@H]6O)nn5)cc(c24)C1=O)C(=O)N(CCCN(C)C)C3=O
[A] 3.47

###

Test system: HT-29
Assay name: Cytotoxicity against human HT-29 cells assessed as reduction in cell viability incubated for 48 hrs by MTT assay
Type: functional, cell-based
Cond: HT-29, 48 h
Observation type: IC50 (nM)
Please reply with the bare figure in nM and do not write the unit itself.

{"columns": ["Smiles code", "Assay system", "IC50 / nM"],
 "data": [
  ["O=C1c2ccc3c4c(c(NCc5cn(CCS[C@@H]6O[C@H](CO)[C@H](O)[C@H](O)[C@H]6O)nn5)cc(c24)C(=O)N1CCN1CCOCC1)C(=O)N(CCN1CCOCC1)C3=O", "HT-29", 26500],
  ["CN(C)CCCN1C(=O)c2ccc3c4c(c(NCc5cn(CCS[C@@H]6O[C@H](CO)[C@@H](O[C@H]7O[C@H](CO)[C@@H](O)[C@H](O)[C@H]7O)[C@H](O)[C@H]6O)nn5)cc(c24)C1=O)C(=O)N(CCCN(C)C)C3=O", "HT-29", 300],
  ["CN(C)CCCN1C(=O)c2ccc3c4c(c(NCc5cn(CCS[C@@H]6O[C@H](CO)[C@H](O)[C@H](O)[C@H]6O)nn5)cc(c24)C1=O)C(=O)N(CCCN(C)C)C3=O", "HT-29", 350],
  ["CN(C)CCCN1C(=O)c2ccc3c4c(c(NCc5cn(CCS[C@H]6O[C@H](CO)[C@@H](O)[C@H](O)[C@@H]6O)nn5)cc(c24)C1=O)C(=O)N(CCCN(C)C)C3=O", "HT-29", 880]
]}

The record that follows has no IC50 shown yet.
[Q] Using known records, supply IC50 for O=C1c2ccc3c4c(c(NCc5cn(CCO[C@@H]6O[C@H](CO)[C@@H](O[C@H]7O[C@H](CO)[C@@H](O)[C@H](O)[C@H]7O)[C@H](O)[C@H]6O)nn5)cc(c24)C(=O)N1CCN1CCOCC1)C(=O)N(CCN1CCOCC1)C3=O
[A] 13000

###

Assay name: Drug uptake in human MRC5 cells at 10 uM incubated for 2 hrs by fluorescence based multiplate reader method
Format: ADME, cell-based
Cond: mrc5, 2 h
Listed molecules paired with reported Drug uptake
Please reply with the bare figure in % and do not write the unit itself.

Some molecules with recorded Drug uptake:
{"columns": ["Smiles code", "Drug uptake, %"],
 "data": [
  ["CN(C)CCCN1C(=O)c2ccc3c4c(c(NCc5cn(CCO[C@@H]6O[C@H](CO)[C@@H](O[C@H]7O[C@H](CO)[C@@H](O)[C@H](O)[C@H]7O)[C@H](O)[C@H]6O)nn5)cc(c24)C1=O)C(=O)N(CCCN(C)C)C3=O", 25.5],
  ["CN(C)CCCN1C(=O)c2ccc3c4c(c(NCc5cn(CCS[C@@H]6O[C@H](CO)[C@@H](O[C@H]7O[C@H](CO)[C@@H](O)[C@H](O)[C@H]7O)[C@H](O)[C@H]6O)nn5)cc(c24)C1=O)C(=O)N(CCCN(C)C)C3=O", 20.7],
  ["O=C1c2ccc3c4c(c(NCc5cn(CCO[C@@H]6O[C@H](CO)[C@@H](O[C@H]7O[C@H](CO)[C@@H](O)[C@H](O)[C@H]7O)[C@H](O)[C@H]6O)nn5)cc(c24)C(=O)N1CCN1CCOCC1)C(=O)N(CCN1CCOCC1)C3=O", 0.8]
]}

The record that follows has no Drug uptake shown yet.
[Q] Using known records, supply Drug uptake for O=C1c2ccc3c4c(c(NCc5cn(CCS[C@@H]6O[C@H](CO)[C@@H](O[C@H]7O[C@H](CO)[C@@H](O)[C@H](O)[C@H]7O)[C@H](O)[C@H]6O)nn5)cc(c24)C(=O)N1CCN1CCOCC1)C(=O)N(CCN1CCOCC1)C3=O
[A] 3.3
